We begin with a simple list: items and their reported IC50.
- tgt: gamma-secretase (Homo sapiens, UniProt P49768)
- Construct: The assay used a partially purified extract of IMR-32 cell membranes as the gamma-secretase enzyme preparation; endogenous in cells
- experiment.summary: Gamma-secretase APP enzyme assay (MBP-C125 Swe cleavage at Aβ40 site, sandwich ELISA)
- test.parameters: IMR-32 cell membrane extract as enzyme; MBP-C125swe substrate; 2 h at 37° C; read-out: γAPP

For this compound ( CC[C@H]1Cc2n[nH]cc2[C@@H](c2ccc(Cl)cc2)N1S(=O)(=O)c1ccc(Cl)cc1 ), measured IC50 is < 50 nM

For this compound ( O=S(=O)(c1ccc(Cl)cc1)N1Cc2c[nH]nc2CC1c1cncnc1 (single isomer, unassigned) ), measured IC50 is < 50 nM

For this compound ( CN(C)C(=O)OC[C@@H]1c2cnn(C(=O)N(C)C)c2CCN1S(=O)(=O)c1ccc(Cl)cc1 ), measured IC50 is 150 to 300 nM

For this compound ( C[C@@H]1c2cn[nH]c2C[C@H](C)N1S(=O)(=O)c1ccc(Cl)cc1 ), measured IC50 is < 50 nM

For this compound ( CC[C@@H]1c2cn[nH]c2C[C@@H](COC(=O)N(C)C)N1S(=O)(=O)c1ccc(Cl)cc1 ), measured IC50 is 150 to 300 nM

For this compound ( O=S(=O)(c1ccc(Cl)cc1)N1CCc2ncccc2C1c1ccc(Cl)cc1 (stereo not drawn) ), measured IC50 is < 50 nM

For this compound ( CC[C@@H]1C(=O)c2[nH]ncc2[C@H](CC)N1S(=O)(=O)c1ccc(Cl)cc1 ), measured IC50 is 150 to 300 nM

For this compound ( CC[C@H]1Cc2n[nH]cc2[C@@H](CC)N1S(=O)(=O)c1ccc(F)cc1 ), measured IC50 is < 50 nM

For this compound ( O=S(=O)(c1ccc(Cl)cc1)N1[C@@H](CO)Cc2[nH]ncc2[C@H]1CO ), measured IC50 is 150 to 300 nM

###

- tgt: gamma-secretase (Homo sapiens, UniProt P49768)
- Construct: The assay used a partially purified extract of IMR-32 cell membranes as the gamma-secretase enzyme preparation; endogenous in cells
- experiment.summary: Gamma-secretase APP enzyme assay (MBP-C125 Swe cleavage at Aβ40 site, sandwich ELISA)
- test.parameters: IMR-32 cell membrane extract as enzyme; MBP-C125swe substrate; 2 h at 37° C; read-out: γAPP
We begin with a simple list: items and their reported IC50.

Measured IC50 (gamma-secretase (Homo sapiens, UniProt P49768)), entry O=S(=O)(c1ccc(Cl)cc1)N1Cc2c[nH]nc2CC1c1nccs1 (stereo not drawn) : 150 to 300 nM

Measured IC50 (gamma-secretase (Homo sapiens, UniProt P49768)), entry O=S(=O)(c1ccc(Cl)s1)N1Cc2cn[nH]c2CC1c1ccccc1 (stereo not drawn) : < 50 nM

Measured IC50 (gamma-secretase (Homo sapiens, UniProt P49768)), entry O=S(=O)(c1ccc(Cl)cc1)N1Cc2cccnc2CC1c1ccc(Cl)cc1 (stereo not drawn) : 150 to 300 nM

The measurements presented in this section are drawn from patent US7732609B2.
